tested.system: T1, K280-ac protein fragment (human)
T1 construct: also called mAC
T1 peptide: VQIINK(Ac)KLDLSN
test.method.notes: ELISA on K280-ac coated at 250 ng/well, HRP anti-human IgG
Ends that are not written are not given here.
# maps each entry to its Absorbance at 450nm at 0.25ug/well
The answer should be a number; do not append a unit.

Answered examples (2):
# binder, Absorbance at 450nm at 0.25ug/well
measured = [
    ("ADEL-Y01h01_v01 antibody (antibody, V domains shown, Humanized ADEL-Y01m; It was detected with anti-human IgG; also called ADEL-Y01h v01) VH: EVQLQESGPGLVKPSQTLSLTCTVSGDSITSGYWNWIRQPPGKGLEYIGYIRYSGRTYYNPSLKSRVTISRDTSKNQFSLKLSSVTAADTAVYYCASVYFTYWGQGTLVTVSS VL: DVVMTQSPLSLPVTLGQPASISCKSSQSLLDSDGKTYLNWFQQRPGQSPKRLISLVSKLDSGVPDRFSGSGSGTDFTLKISRVEAEDVGVYYCWQGSHFPYTFGQGTKLEIK", 1.93),
    ("ADEL-Y01h v09 antibody (antibody, V domains shown, Humanized antibody; It was detected with anti-human IgG; also called Y01h01v09) VH: EVTLKESGPTLVKPTQTLTLTCTVSGDSITSGYWNWIRQPPGKALEYLAYIRYSGRTYYNPSLKSRLTITRDTSKNQVVLTMTNMDPVDTATYYCASVYFTYWGQGTLVTVSS VL: EVVLTQSPGTLSLSPGERATLSCKSSQSLLDSDGKTYLNWYQQKPGQSPKRLISLVSKLDSGIPDRFSGSGSGTDFTLTISRLEPEDFAVYYCWQGSHFPYTFGQGTKLEIK", 1.32),
]

Attention now turns to another entry.
The binder identified as ADEL-Y01h v03 antibody (antibody, V domains shown, Humanized antibody; It was detected with anti-human IgG; also called Y01h01v03) VH: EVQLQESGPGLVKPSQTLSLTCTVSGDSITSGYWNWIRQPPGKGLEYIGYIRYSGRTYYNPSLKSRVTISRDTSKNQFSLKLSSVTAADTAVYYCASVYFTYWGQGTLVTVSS VL: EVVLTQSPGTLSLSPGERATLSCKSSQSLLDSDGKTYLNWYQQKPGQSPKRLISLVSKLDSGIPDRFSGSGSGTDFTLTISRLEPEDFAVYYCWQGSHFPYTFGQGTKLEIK registered its Absorbance at 450nm at 0.25ug/well at 1.06
